Conditions: in DMF, 308.15 K
MEASURED_ENDPOINT: solubility (mole fraction)
The answer should be a number; do not append a unit.

• Nc1ccc(C(=O)/C=C/c2ccc(-c3cccc([N+](=O)[O-])c3)o2)cc1 = 0.00264
• COc1ccc(C(=O)/C=C/c2ccc(-c3cccc([N+](=O)[O-])c3)o2)cc1 = 0.0113
• O=C(/C=C/c1ccc(-c2cccc([N+](=O)[O-])c2)o1)c1ccc2ccc(=O)oc2c1 = 0.0071
• O=C(/C=C/c1ccc(-c2cccc([N+](=O)[O-])c2)o1)c1cccc([N+](=O)[O-])c1 = 0.00614
• O=C(/C=C/c1ccc(-c2cccc([N+](=O)[O-])c2)o1)c1ccc(O)cc1 = 0.00675

# query: solubility (mole fraction) of entry O=C(/C=C/c1ccc(-c2cccc([N+](=O)[O-])c2)o1)CO
0.0095

# query: solubility (mole fraction) of entry O=C(/C=C/c1ccc(-c2cccc([N+](=O)[O-])c2)o1)c1ccc([N+](=O)[O-])cc1
0.00244

# query: solubility (mole fraction) of entry O=C(/C=C/c1ccc(-c2cccc([N+](=O)[O-])c2)o1)c1ccc(Br)cc1
0.00714

# query: solubility (mole fraction) of entry O=C(/C=C/c1ccc(-c2cccc([N+](=O)[O-])c2)o1)c1ccccc1
0.00998

# query: solubility (mole fraction) of entry O=C(/C=C/c1ccc(-c2cccc([N+](=O)[O-])c2)o1)c1ccc(Cl)cc1
0.00468

###

Conditions: in DMF, 298.15 K
Classification field: Met = solubility (mole fraction) at or over 0.007; Not met = solubility (mole fraction) under 0.007.

# count of solved cases: 2
- Nc1ccc(C(=O)/C=C/c2ccc(-c3cccc([N+](=O)[O-])c3)o2)cc1: Not met
- COc1ccc(C(=O)/C=C/c2ccc(-c3cccc([N+](=O)[O-])c3)o2)cc1: Met

Please tell me: is the compound O=C(/C=C/c1ccc(-c2cccc([N+](=O)[O-])c2)o1)c1ccc(Cl)cc1 at or over 0.007 in terms of solubility (mole fraction)?
Not met

###

Conditions: in 1,4-dioxane, 308.15 K
MEASURED_ENDPOINT: solubility (mole fraction)
The answer should be a number; do not append a unit.

* O=C(/C=C/c1ccc(-c2cccc([N+](=O)[O-])c2)o1)c1cccc([N+](=O)[O-])c1 | 0.00602
* O=C(/C=C/c1ccc(-c2cccc([N+](=O)[O-])c2)o1)c1ccc(O)cc1 | 0.00581
* O=C(/C=C/c1ccc(-c2cccc([N+](=O)[O-])c2)o1)c1ccc(Cl)cc1 | 0.00277
* COc1ccc(C(=O)/C=C/c2ccc(-c3cccc([N+](=O)[O-])c3)o2)cc1 | 0.00737

API: the following record is the query input.
# query: solubility (mole fraction) of entry O=C(/C=C/c1ccc(-c2cccc([N+](=O)[O-])c2)o1)c1ccc2ccc(=O)oc2c1
0.00622

###

Conditions: in 1,4-dioxane, 303.15 K
Classification field: rule met = solubility (mole fraction) at or over 0.005; rule not met = solubility (mole fraction) under 0.005.

# count of solved cases: 2
• O=C(/C=C/c1ccc(-c2cccc([N+](=O)[O-])c2)o1)c1cccc([N+](=O)[O-])c1 = rule met
• O=C(/C=C/c1ccc(-c2cccc([N+](=O)[O-])c2)o1)CO = rule met

Please tell me: is the molecule O=C(/C=C/c1ccc(-c2cccc([N+](=O)[O-])c2)o1)c1ccc(Cl)cc1 at or over 0.005 in terms of solubility (mole fraction)?
rule not met

Please tell me: is the molecule O=C(/C=C/c1ccc(-c2cccc([N+](=O)[O-])c2)o1)c1ccc(O)cc1 at or over 0.005 in terms of solubility (mole fraction)?
rule met

Please tell me: is the molecule O=C(/C=C/c1ccc(-c2cccc([N+](=O)[O-])c2)o1)c1ccc2ccc(=O)oc2c1 at or over 0.005 in terms of solubility (mole fraction)?
rule met

Please tell me: is the molecule O=C(/C=C/c1ccc(-c2cccc([N+](=O)[O-])c2)o1)c1ccccc1 at or over 0.005 in terms of solubility (mole fraction)?
rule met

Please tell me: is the molecule COc1ccc(C(=O)/C=C/c2ccc(-c3cccc([N+](=O)[O-])c3)o2)cc1 at or over 0.005 in terms of solubility (mole fraction)?
rule met

Please tell me: is the molecule O=C(/C=C/c1ccc(-c2cccc([N+](=O)[O-])c2)o1)c1ccc([N+](=O)[O-])cc1 at or over 0.005 in terms of solubility (mole fraction)?
rule not met

Please tell me: is the molecule Nc1ccc(C(=O)/C=C/c2ccc(-c3cccc([N+](=O)[O-])c3)o2)cc1 at or over 0.005 in terms of solubility (mole fraction)?
rule not met
